Below, each of the molecules is paired with its reported activation value.
Molecular target: Thyrotropin-releasing hormone receptor (Homo sapiens) (UniProt P34981)
Sequence (P34981 whole entry, looked up): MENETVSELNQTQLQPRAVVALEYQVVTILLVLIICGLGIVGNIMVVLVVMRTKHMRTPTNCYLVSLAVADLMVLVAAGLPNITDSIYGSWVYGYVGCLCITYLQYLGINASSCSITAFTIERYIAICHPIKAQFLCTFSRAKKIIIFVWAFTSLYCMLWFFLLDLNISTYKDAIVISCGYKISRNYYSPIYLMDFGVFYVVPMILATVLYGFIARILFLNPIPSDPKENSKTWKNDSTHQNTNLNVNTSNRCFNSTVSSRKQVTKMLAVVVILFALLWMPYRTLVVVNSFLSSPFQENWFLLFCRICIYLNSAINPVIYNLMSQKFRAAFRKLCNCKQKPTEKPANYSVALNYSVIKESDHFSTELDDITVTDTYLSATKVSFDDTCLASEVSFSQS
Assay: qHTS for Small Molecule Agonists and Allosteric Enhancers of Human TRH Receptor: Validation Screen for Agonists (AID 493127);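 further: intracellular calcium rise by fluo-8 fluorescence before TRH EC20 addition; 0% is about no effect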
Settings: TRH receptor agonist cell assay; at 2 µM; active compounds read high
Field format: number, assumed %, no unit text.

These recorded examples may help you get a feel for the data.
>>> print(df.to_string())
                                   molecule  readoutkind  measurement
0  CNc1ccc2oc(C[C@H]3O[C@@]4(CC[C@H]3C)O[C@H]([C@H](C)C(=O)c3ccc[nH]3)[C@H](C)C[C@H]4C)nc2c1C(=O)O   activation        0.125
1                 c1ccc2c(c1)[I+]c1ccccc1-2   activation        -4.44
2                     CN(N=O)c1ccc(O)c(O)c1   activation       -0.438
3  NC(=O)COc1c(F)cc(SCCNS(=O)(=O)c2ccccc2)cc1F   activation            0
4                                 CC(=O)NBr   activation      -0.0625
5                    C[N+](C)(C)CCOC(=O)CBr   activation         1.06

Proceeding to the next molecule to report its activation.
# get_value(readout= activation, system= Thyrotropin-releasing hormone receptor (Homo sapiens) (UniProt P34981)) for CCCN1CCCC2Cc3[nH]ncc3CC21 (configuration not stated)
-0.5

###

Assay: Quantitative high throughput screen for delayed death inhibitors of the malarial parasite plastid, 48 hour incubation (AID 488752); further: nearly all actives have a fitted effect of over 65% in size
Settings: Plasmodium falciparum growth; series mostly up to 28.7 µM
Results filed as inconclusive are left out. Active and inactive are the calls of the source. Calls follow the shape of the dose curve; as a rule, active = well fitted inhibition curve with a large enough effect; inconclusive = small, poorly fitted or top-dose-only effect, or effect the other way; inactive = flat fitted curve, though single readings scatter.
Please answer using one outcome listed in active, inactive

Worked set:
>>> df
                                   compound  discretelabel
0  CN1C2CCC1CC(OC(c1ccccc1)c1ccc(Cl)cc1)C2 (stereo not drawn)         active
1  CCCn1c(C)c(C(=O)c2ccc3ccccc3c2)c2ccccc21       inactive

Fill in: this test's call for CC1OC1P(=O)(O)O (stereo not drawn) is ___
inactive

###

Assay: Cell Viability - LYMP2-014 (AID 983);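 further: cells exposed to compound for 24 h at 37 °C; nearly all actives have a fitted effect of over 50% in size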
Conditions: LYMP2-014 lymphoblastoid cells, viability qHTS; series mostly up to 92.2 µM
Records with an inconclusive call do not appear. The source made the active and inactive calls. Calls follow the shape of the dose curve; as a rule, active = well fitted cell-killing curve with a large enough effect; inconclusive = small, poorly fitted or top-dose-only effect; inactive = flat fitted curve, though single readings scatter.
Please answer using one outcome listed in active, inactive

Fill in: this test's call for Clc1ccccc1Cl is ___
inactive

Same again, this time with [Cl-].[Cl-].[Hg+2]
active

Same again, this time with CC(C)CCON=O
inactive

Same again, this time with C[C@]12CCC(=O)C[C@@H]1CC[C@@H]1[C@@H]2CC[C@]2(C)[C@@H](O)CC[C@@H]12
inactive

Same again, this time with COc1ccc2c(c1OC)C(=O)OC2C1c2cc3c(cc2CCN1C)OCO3 (stereo not drawn)
inactive

Same again, this time with [O]=[Cd]
inactive

Same again, this time with CCCCCl
inactive

Same again, this time with C[C@H]1CCC[C@H](O)CCCCCc2cc(O)cc(O)c2C(=O)O1
inactive

###

Target: ATP-dependent 6-phosphofructokinase (Trypanosoma brucei brucei)
Assay: qHTS Validation Assay to Find Inhibitors of T. brucei phosphofructokinase (AID 485368)
Settings: T. brucei PFK enzyme assay, qHTS 7-point titration; series mostly up to 57.5 µM
Records with an inconclusive call do not appear. Calls of active or inactive are those of the source. The call rests on the fitted dose curve; in most records, active means well fitted inhibition curve with a large enough effect; inconclusive means small, poorly fitted or top-dose-only effect, or effect the other way; inactive means flat fitted curve, though single readings scatter.
Please answer using one outcome listed in label 1 for active, label 0 for inactive

Fill in: this test's call for NCCc1ccc(S(=O)(=O)F)cc1 is ___
label 0

Same again, this time with CCCN1CCc2cc(O)cc3c2[C@H]1Cc1ccc(O)c(O)c1-3
label 1

Same again, this time with C=CCN1CC[C@]23c4c5ccc(O)c4O[C@@H]2/C(=N/N=C2\CC[C@@]4(O)C6Cc7ccc(O)c8c7[C@@]4(CCN6CC=C)[C@@H]2O8)CC[C@@]3(O)C1C5
label 0

Same again, this time with N#CCCN
label 0

Same again, this time with Nc1ccc(CCN2CCN(c3cccc(C(F)(F)F)c3)CC2)cc1
label 0

Same again, this time with CN(C(=O)Cc1ccc(Cl)c(Cl)c1)C(CN1CCCC1)c1cccc(OCC(=O)O)c1 (stereo unspecified)
label 0

Same again, this time with N[C@@H](Cn1ccc(=O)[nH]c1=O)C(=O)O
label 0

Same again, this time with CO[C@H]1CC=C2CCN3CCC4=C(CC(=O)OC4)[C@]23C1
label 0

Same again, this time with Clc1ccc(N2CC3CCC(C2)N3)nn1
label 0

Same again, this time with CCCN1CC[C@@H]2c3cc(O)ccc3CC[C@@H]21
label 0

Same again, this time with COc1cc(CC(C)N)c(OC)cc1I (stereo unspecified)
label 0

###

Molecular target: M-phase phosphoprotein 8 (Homo sapiens)
Test: qHTS Validation Assay for Inhibitors for MPP8 Chromodomain Interactions with Methylated Histone Tails (AID 488949); further: nearly all actives have a fitted effect of over 55% in size
Conditions: AlphaScreen MPP8 binding to H3K9me3 peptide; series mostly up to 57.1 µM
Records with an inconclusive call do not appear. Activity calls are given as the source filed them. Calls come from the whole dose curve; as a rule, active = well fitted inhibition curve with a large enough effect; inconclusive = small, poorly fitted or top-dose-only effect; inactive = no such curve, though single readings can be large or run the other way.
Please answer using one outcome listed in active, inactive

Worked set:
                                   compound                       experimentalsystem  discretelabel
0                       CN(N=O)c1cc(O)ccc1O  M-phase phosphoprotein 8 (Homo sapiens)         active
1  CN1C2CCC1CC(OC(c1ccccc1)c1ccccc1N)C2 (stereo unspecified)  M-phase phosphoprotein 8 (Homo sapiens)       inactive
2  CC(Cc1ccc(OCC(=O)O)cc1)NCC(O)c1cccc(Cl)c1 (stereo unspecified)  M-phase phosphoprotein 8 (Homo sapiens)       inactive
3  NC(=O)c1cc(N2CC2)c([N+](=O)[O-])cc1[N+](=O)[O-]  M-phase phosphoprotein 8 (Homo sapiens)       inactive
4                          O=C1C=CC(=O)C=C1  M-phase phosphoprotein 8 (Homo sapiens)       inactive
5  Oc1ccc2c3c1O[C@H]1c4[nH]c5ccccc5c4C[C@@]4(O)C(C2)N(CC2CC2)CCC314 (stereo partly specified)  M-phase phosphoprotein 8 (Homo sapiens)       inactive
6  CCCn1c(C)c(C(=O)c2ccc3ccccc3c2)c2ccccc21  M-phase phosphoprotein 8 (Homo sapiens)       inactive
7  C[C@H](Cc1ccc2c(c1)OC(C(=O)O)(C(=O)O)O2)NC[C@H](O)c1cccc(Cl)c1  M-phase phosphoprotein 8 (Homo sapiens)       inactive
8  CC(N)Cc1c[nH]c2ccc(O)cc12 (stereo unspecified)  M-phase phosphoprotein 8 (Homo sapiens)       inactive
9                        N[C@@H](CCl)C(=O)O  M-phase phosphoprotein 8 (Homo sapiens)       inactive

Fill in: this test's call for CC(=O)OCC1=C(C(=O)O)N2C(=O)[C@@H](NC(=O)CCC[C@@H](N)C(=O)O)[C@H]2SC1 is ___
inactive

Same again, this time with CCCN1CCC[C@@H](c2cccc(O)c2)C1
inactive

Same again, this time with NCCc1ccc(S(=O)(=O)F)cc1
inactive

Same again, this time with OC1CCCCC1N1CCC(c2ccccc2)CC1 (stereo unspecified)
inactive

Same again, this time with C[N+]1(C)CCC(OC(=O)C(c2ccccc2)c2ccccc2)CC1
inactive

Same again, this time with CN1CC[C@@]2(C)c3cc(O)ccc3N(C)C12 (stereo partly specified)
inactive

Same again, this time with CCCC[N+]1(C)C2CC(OC(=O)[C@H](CO)c3ccccc3)CC1C1OC12 (stereo partly specified)
inactive

###

Target: Parathyroid hormone/parathyroid hormone-related peptide receptor (Homo sapiens) (UniProt Q03431)
Sequence (Q03431 whole entry, looked up): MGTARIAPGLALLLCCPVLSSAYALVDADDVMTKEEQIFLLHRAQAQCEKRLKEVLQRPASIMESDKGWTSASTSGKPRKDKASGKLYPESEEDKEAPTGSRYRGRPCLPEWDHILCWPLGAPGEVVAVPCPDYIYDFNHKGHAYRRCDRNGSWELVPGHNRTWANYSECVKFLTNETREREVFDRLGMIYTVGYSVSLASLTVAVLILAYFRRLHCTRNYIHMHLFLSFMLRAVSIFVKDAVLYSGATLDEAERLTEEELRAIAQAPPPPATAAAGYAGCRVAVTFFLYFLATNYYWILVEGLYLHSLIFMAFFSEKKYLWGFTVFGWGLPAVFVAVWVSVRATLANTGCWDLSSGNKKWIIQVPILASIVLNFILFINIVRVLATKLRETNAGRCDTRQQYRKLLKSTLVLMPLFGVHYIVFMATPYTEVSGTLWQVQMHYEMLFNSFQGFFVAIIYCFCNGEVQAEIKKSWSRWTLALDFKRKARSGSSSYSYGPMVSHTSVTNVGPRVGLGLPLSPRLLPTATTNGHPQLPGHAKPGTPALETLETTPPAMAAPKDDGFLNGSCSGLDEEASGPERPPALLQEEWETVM
Experiment: qHTS for PTHR1 Agonists: Optimization Screen against the NCGC LOPAC library (AID 1347079);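 further: GloSensor cAMP luminescence in HEK-293 GP2 cells expressing human PTHR1 with IBMX; 0% is about no effect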
Conditions: HEK293 GP2 PTHR1 GloSensor cAMP luminescence, 1 h; series mostly up to 57.1 µM
Activity calls are given as the source filed them. Calls follow the shape of the dose curve; as a rule, active = well fitted activation curve with a large enough effect; inconclusive = small, poorly fitted or top-dose-only effect; inactive = no such curve, though single readings can be large or run the other way.
readoutKind: outcome

These recorded examples may help you get a feel for the data.
In [3]: df
Out[3]:
                                   molecule  measurement
0  C[N+]1(C)CCOC(O)(c2ccc(-c3ccc(C4(O)C[N+](C)(C)CCO4)cc3)cc2)C1 (configuration not stated)     inactive
1  CCCCCCC(C)(C)c1ccc([C@@H]2C[C@H](O)CC[C@H]2CCCO)c(O)c1     inactive
2                 c1ccc2cc(CC3=NCCN3)ccc2c1     inactive
3        C/C(O)=C(\C#N)C(=O)Nc1cc(Br)ccc1Br     inactive
4  NCC(O)c1cc(O)c(O)cc1F (configuration not stated)     inactive

Would you mind telling me what outcome value was observed for COC(=O)N1CCN(C(=O)Cc2ccc(Cl)c(Cl)c2)C(CN2CCCC2)C1 (configuration not stated) ?
inactive

Same again, this time with N#CCCN
inactive

Same again, this time with Oc1ccc2c3c1O[C@H]1c4[nH]c5ccccc5c4C[C@@]4(O)C(C2)N(CC2CC2)CCC314 (some centres not stated)
inactive

Same again, this time with C[N+](C)(C)CCOC(=O)CBr
inactive

Same again, this time with C[C@H](N)Cc1cccc(C(F)(F)F)c1
inactive

Same again, this time with CNc1ccc2oc(C[C@H]3O[C@@]4(CC[C@H]3C)O[C@H]([C@H](C)C(=O)c3ccc[nH]3)[C@H](C)C[C@H]4C)nc2c1C(=O)O
inactive

Same again, this time with NC(=O)CI
inactive

Data provenance is PubChem BioAssay (NCATS).
